Data origin: ChEMBL document CHEMBL1201862

# System: SNB-78
# experimental-protocol: NCI tumour cell line growth inhibition, 48 h
The source made the active and inactive calls. No stated cut-off is given here; in the data, active = GI50 up to about 1.1 µM and inactive = higher.
attribute-measured: GI50

Query CCc1cccc(C)c1NC(=O)CC1C(=O)Nc2ccccc2S1(=O)=O (stereo not given) yields GI50 of 21.1 µM (inactive)

# compound CCCN1CN(C(C(=O)N[C@@H]2C(=O)N3C(C(=O)O)=C(C)CSC23)c2ccccc2)CSC1=S (stereo not given in full) ; its GI50 = > 100 µM (inactive)

The reported GI50 of the compound COc1cc2ccc(C(=O)O)cc2cc1OC was > 100 µM (inactive)

Given item Cc1cc(C)c2c(c1)CN1CN2Cc2cc(C)cc(C)c21 , the value recorded as its GI50 is 17.5 µM (inactive)

Record COc1cc([C@@H]2Oc3cc4oc(-c5ccccc5)cc(=O)c4c(O)c3O[C@H]2OC)ccc1O , field GI50: 18.2 µM (inactive)

// sample COC1=C(C(=O)OC(C)(C)C)[C@]2(C)C(C(=O)OC(C)(C)C)C(OC)=C(C(=O)OC(C)(C)C)[C@]2(C)C1C(=O)OC(C)(C)C (stereo not given in full) , its GI50 was > 100 µM (inactive)

For record C=C[C@]1(C)CC(O)C2C(=C)C(=O)OC2[C@H]1C(=C)C=O (stereo not given in full) the listed GI50 is 3.56 µM (inactive)

CCOC(=O)C(=O)Nc1ccccc1C has a reported GI50 of > 100 µM (inactive)

Lab note: measured GI50 of C[C@@H]1C2=CC[C@@]3(C)C(CCC3[C@H](C)[C@H]3C[C@@]4(C)O[C@@](c5cccnc5)(O3)OC4(C)C)[C@@H]2C2OC2[C@@]12CCC(=O)O2 (stereo not given in full) was 85.1 µM (inactive)

Quick note, GI50 for Oc1nnc2c(-c3ccccc3)n[nH]c2n1 landed at > 100 µM (inactive)

====

I'd be grateful if you could share measured GI50 for these entries.
# System: NCI/ADR-RES
# experimental-protocol: NCI tumour cell line growth inhibition, 48 h
Calls of active or inactive are those of the source. Rule as the data show it: active = GI50 up to about 1.1 µM and inactive = higher. Where a SMILES comes first, the peptide text is derived from it. [ ]: non-standard residue; d: D form. The star is where a group is joined. Chg = N[CH](C(=O)O)C1CCCCC1; Cbz = O=C(OCc1ccccc1)*; OBn = c1ccc(CO*)cc1

Summary for this molecule, COC(=O)C(NC(=O)C(CC(=O)OCc1ccccc1)NC(=O)OCc1ccccc1)C1CCCCC1 (stereo not given) (Cbz-Asp(OBn)-[Chg]-OMe; configuration not given here) : GI50 is > 100 µM (inactive)

The molecule listed as CC(=O)OCC1OC(n2cc(F)c(=O)[nH]c2=O)C(OC(C)=O)C1OC(C)=O (stereo not given) has a reported GI50 of 37.4 µM (inactive)

In plain terms, COc1ccc2nc3n(c2c1)CCc1cc(OC)c(OC)cc1-3 has a documented GI50 of 45.2 µM (inactive)

Per the records, this molecule ( CN1CCN(c2ccc3c(c2)NCC(=O)N3)CC1 ) has GI50 equal to > 100 µM (inactive)

response.value for COc1cc2c(NCCCCCCO[N+](=O)[O-])ncnc2c(OC)c1OC (field: GI50) = 21.7 µM (inactive)

GI50 reported for this molecule Sc1nc2c(c(-c3nc(S)nc4c3CCCCCCCCCC4)n1)CCCCCCCCCC2 : > 100 µM (inactive)

In plain terms, COc1ccc2nc3c([N+](=O)[O-])ccc4c3c(c2c1)N=CN4CCCN(C)C has a documented GI50 of 2.32 µM (inactive)

GI50 recorded for this molecule, CC(=O)O[C@H]1CC[C@H]2[C@@H]3CCC4=C/C(=N/OCCN(C)C)CC[C@]4(C)[C@H]3CC[C@]12C , is 12.6 µM (inactive)

Just so you know, measured GI50 for COc1ccc(C2COc3c(ccc(O)c3C)C2)cc1OC (stereo not given) came out at 110 µM (inactive)

Given item COc1ccc2c(c1)CCCN1CCc3ccccc3C21 (stereo not given) , the value recorded as its GI50 is 16.8 µM (inactive)
